Blood pressure change (mm/Hg)ED50: recorded values
# System: dogs with induced myocardial infarction
# test description: Inotropic potency on intravenous administration to dogs with induced myocardial infarction
# Format: in vivo
# condition notes: change in blood pressure attributable to the drug at the ED50 dose, dogs with induced myocardial infarction
observation type: Blood pressure change (mm/Hg)ED50

• Oc1ccc(CCCNC[C@H](O)c2ccc(O)cc2)cc1 = +4 mm/Hg
• Oc1ccc(CCCNC[C@H](O)c2cccc(O)c2)cc1 = +1 mm/Hg
• Oc1cccc(CCCNC[C@H](O)c2cccc(O)c2)c1 = +7 mm/Hg
• Oc1ccc([C@@H](O)CNCCCc2cccc(O)c2)cc1 = -4 mm/Hg

Origin of measurements: patent EP0007716A1
